Reference source for all entries: patent US8658690B2

- Tested on: LPS-stimulated RAW264.7 macrophage cells
- MEASUREMENT_DESCRIPTION: Cell viability by MTT method in LPS-stimulated RAW264.7 cells
- Type: cell-based, murine
- CONDITION_DETAILS: 10 μg/mL, 30 min pretreatment then 50 ng/mL LPS 48 hours
QUANTITY: Cell viability (%)
Give the value in % but do not write % after it.

MOLECULE | QUANTITY | UNIT_TAG | VALUE
CC(C)=CCOc1ccc([C@@H]2C(=O)NC(=O)[C@H]2CC(C)C)cc1 (relative stereo) | Cell viability (%) | % | 102
CC(C)C[C@@H]1C(=O)N(O)C(=O)[C@H]1c1ccc(O)cc1 (relative stereo) | Cell viability (%) | % | 109
CC(C)C[C@H]1C(=O)OC(=O)[C@H]1c1ccc(O)cc1 (relative stereo) | Cell viability (%) | % | 91
CC(C)CC1=C(c2ccc(O)cc2)C(=O)OC1=O | Cell viability (%) | % | 100
CC(C)CC1=C(c2ccc(O)cc2)C(=O)NC1=O | Cell viability (%) | % | 92

Return Cell viability (%) (reported value) for this molecule: `COC(=O)/C(CC(C)C)=C(\C(=O)OC)c1ccc(O)cc1`
102

====

- Test system: RAW264.7 macrophage cells
- MEASUREMENT_DESCRIPTION: Cell viability by MTT method in RAW264.7 cells treated with compounds for 48 hours (no LPS)
- Assay type: cell-based, murine
- CONDITION_DETAILS: 1 μg/mL, RAW264.7, no LPS, mean ± SD
QUANTITY: Cell viability (%)
# output: bare number, implied unit %

COMPOUND | Cell viability (%)
CC(C)CC1=C(c2ccc(O)cc2)C(=O)NC1=O [Compound 4] | 99

Hello, please tell me recorded Cell viability (%) for this one: CC(C)C[C@@H]1C(=O)N(O)C(=O)[C@H]1c1ccc(O)cc1 (relative stereo) [Compound 2]
100

Determine its reported Cell viability (%): COC(=O)/C(CC(C)C)=C(\C(=O)OC)c1ccc(O)cc1 [Compound 6]
99

Provide measured Cell viability (%) value, entry: CC(C)C[C@H]1C(=O)OC(=O)[C@H]1c1ccc(O)cc1 (relative stereo) [Compound 3]
87

Specify measured Cell viability (%) for CC(C)=CCOc1ccc([C@@H]2C(=O)NC(=O)[C@H]2CC(C)C)cc1 (relative stereo) [Compound 1] .
101

Complete the entry with Cell viability (%) for CC(C)CC1=C(c2ccc(O)cc2)C(=O)OC1=O [Compound 5]
102

====

- Test system: IL-6
- MEASUREMENT_DESCRIPTION: IL-6 secretion in LPS-stimulated RAW264.7 cells, ELISA
- Type: cell-based, murine
- CONDITION_DETAILS: 5 μg/mL, 50 ng/mL LPS 48 hours; LPS control 238 ± 86
QUANTITY: IL-6 (pg/mL) secretion
Expressed in pg/mL, but write only the number.

Take a look at these entries with their results.
MOLECULE | VALUE
CC(C)C[C@@H]1C(=O)N(O)C(=O)[C@H]1c1ccc(O)cc1 (relative stereo) | 210
CC(C)CC1=C(c2ccc(O)cc2)C(=O)OC1=O | 225
CC(C)C[C@H]1C(=O)OC(=O)[C@H]1c1ccc(O)cc1 (relative stereo) | 185
COC(=O)/C(CC(C)C)=C(\C(=O)OC)c1ccc(O)cc1 | 209
CC(C)=CCOc1ccc([C@@H]2C(=O)NC(=O)[C@H]2CC(C)C)cc1 (relative stereo) | 144

Quote IL-6 (pg/mL) secretion reported for `CC(C)CC1=C(c2ccc(O)cc2)C(=O)NC1=O` please.
195
